Target: human GLP-1R (Homo sapiens, UniProt P43220)
Construct: host or cells: HEK293
Sequence (P43220 24-463): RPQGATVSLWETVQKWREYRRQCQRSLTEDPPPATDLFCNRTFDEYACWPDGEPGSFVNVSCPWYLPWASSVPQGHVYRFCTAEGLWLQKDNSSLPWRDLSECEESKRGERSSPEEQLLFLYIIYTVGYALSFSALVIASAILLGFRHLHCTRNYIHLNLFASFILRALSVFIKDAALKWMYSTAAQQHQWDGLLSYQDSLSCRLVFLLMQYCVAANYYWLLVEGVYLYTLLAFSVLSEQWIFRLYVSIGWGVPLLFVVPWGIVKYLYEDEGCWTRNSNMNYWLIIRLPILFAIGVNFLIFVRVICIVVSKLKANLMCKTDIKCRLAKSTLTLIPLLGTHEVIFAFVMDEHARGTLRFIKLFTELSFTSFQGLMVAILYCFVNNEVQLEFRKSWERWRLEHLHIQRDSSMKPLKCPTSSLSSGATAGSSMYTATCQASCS
Test: GLP-1R cAMP assay (Example B1a, HTRF, 30 min at room temperature)
Format: cell-based
Conditions: cAMP accumulation in HEK293 expressing human GLP-1R, no BETP, 30 min room temperature (Method B1a, compounds ID 1-609), Table 1; read-out: EC50
Protocol: Assay was carried out with HEK293 expressing human GLP-1R using HTRF assay, developed by Wuxi Apptec. The method is a competitive assay between native cAMP produced by the cells and exogenous cAMP labeled with a proprietary dye d2. […] Plates were read on Envision plate reader. The data were analyzed by ScreenUltra in Dotmatics, with % activation expressed using following formula: (Well data−negative control)/(postive control−negative control)*100. […]
pEC50: −log10 of the molar value.
endpoint: pEC50

1) Cc1cc(-n2nc3c(c2-c2ncn(-c4ccc5c(cnn5C)c4F)c2C)[C@H](C)N(C(=O)c2cc4cc(C5CCC(F)(F)CC5)ccc4n2C2(c4noc(=O)[nH]4)CC2)CC3)cc(C)c1F [Compound 106] | < 5.00
2) Cc1cc(-n2nc3c(c2-n2ccn(-c4ccc(C(=O)N(C)C5CC5)c(Cl)c4)c2=O)[C@@H]2CCC[C@H](C3)N2C(=O)c2cc3cc([C@H]4CCOC(C)(C)C4)ccc3n2[C@@]2(c3noc(=O)[nH]3)C[C@@H]2C)cc(C)c1F [Compound 543] | ≤ 5.00
3) Cc1cc(-n2nc3c(c2-n2ccn(-c4ccc5c(cnn5C)c4F)c2=O)[C@@H]2CC[C@H](C3)N2C(=O)c2cc3c(OC4CCOC(C)(C)C4)nccc3n2[C@@]2(c3noc(=O)[nH]3)C[C@@H]2C)cc(C)c1F (stereo partly drawn) [Compound 232] | < 5.00

----------
Biological target: human GLP-1R (Homo sapiens)
Construct: host or cells: HEK293
Assay: GLP-1R cAMP assay (Example B1a, HTRF, 30 min at room temperature)
Format: cell-based
Details: cAMP accumulation in HEK293 expressing human GLP-1R, no BETP, 30 min room temperature (Method B1a, compounds ID 1-609), Table 1; read-out: EC50
Experimental: Assay was carried out with HEK293 expressing human GLP-1R using HTRF assay, developed by Wuxi Apptec. The method is a competitive assay between native cAMP produced by the cells and exogenous cAMP labeled with a proprietary dye d2. […] Plates were read on Envision plate reader. The data were analyzed by ScreenUltra in Dotmatics, with % activation expressed using following formula: (Well data−negative control)/(postive control−negative control)*100. […]
pEC50: −log10 of the molar value.
Below is a list of entries, each paired with its recorded pEC50 value.
endpoint: pEC50

1. Cc1cc(-n2nc3c(c2-n2ccn(-c4ccc5c(cnn5C)c4F)c2=O)[C@@H]2CC[C@H](C3)N2C(=O)c2cc3cc([C@H]4CCOC4(C)C)ccc3n2[C@@]2(c3noc(=O)[nH]3)C[C@@H]2C)cc(C)c1F [Compound 419] | ≤ 5.00
2. Cc1cc(-n2nc3c(c2-c2ncn(-c4ccc5c(cnn5C)c4F)c2C)[C@H](C)N(C(=O)c2cc4cc([C@H]5CCOC(C)(C)C5)ccc4n2C2(c4noc(=O)[nH]4)CC2)CC3)cc(C)c1F [Compound 30] | < 5.00
3. Cc1cc(-n2nc3c(c2-n2ccn(-c4ccc(C(=O)N(C)C5CC5)c(F)c4F)c2=O)[C@@H]2CCC[C@H](C3)N2C(=O)c2cc3cc([C@H]4CCOC(C)(C)C4)ccc3n2[C@@]2(c3noc(=O)[nH]3)C[C@@H]2C)cc(C)c1F [Compound 547] | ≤ 5.00
4. Cc1cc(-n2nc3c(c2-n2cc(-c4ccc5c(cnn5C)c4F)nn2)[C@H](C)N(C(=O)c2cc4cc([C@H]5CCOC(C)(C)C5)ccc4n2[C@@]2(c4noc(=O)[nH]4)C[C@@H]2C)CC3)cc(C)c1F [Compound 1] | < 5.00
5. Cc1cc(-n2nc3c(c2-n2ccn(-c4ccc5c(cnn5C)c4F)c2=O)[C@@H]2CC[C@H](C3)N2C(=O)c2cc3cc([C@@H]4CCOC5(CC5)C4)ccc3n2[C@@]2(c3noc(=O)[nH]3)C[C@H]2C)cc(C)c1F [Compound 541] | ≤ 5.00
